System: MDA-MB-231 breast
Test: NCI tumour cell line growth inhibition, 48 h
Measured property: TGI

Use the examples below as a reference point.
CN(C)CCCNC(=O)c1c(O)c2ccccc2n(C)c1=O	> 100 µM
C/C(=N\Nc1nc2ccccc2s1)c1ccc2ccccc2n1	> 100 µM

Now let's try a different one.
Reported TGI (MDA-MB-231 breast) for entry `CCOC(=O)NC(Nc1c(F)c(F)c(F)c(F)c1F)(C(F)(F)F)C(F)(F)F` is > 100 µM

---

// reported TGI per item
Tested on: SK-OV-3 ovarian
Assay: NCI tumour cell line growth inhibition, 48 h
Answer format: numeric, µM implied, no suffix.

Take a look at these entries with their results.
Cc1ccc(NC(=O)/C(Cc2nc3ccc([N+](=O)[O-])cc3[nH]c2=O)=N\NC(=O)C[n+]2ccccc2)c(C)c1	56.5
COc1ccc(C2c3cc4c(cc3OC(NCCO)C2C)OCO4)cc1 (configuration not stated)	87.6
C=C1C(=O)C23C(O)CC4C5(C)CCCC4(C(O)OC5)C2C(OC(C)=O)CC1C3O (configuration not stated)	37.1

GET /value?item= C=C1C(=O)C23C(O)C1CC[C@H]2C12CCCC(C)(COC(C)=O)[C@H]1[C@H](O)[C@]3(O)OC2 (some centres not stated) &field=TGI returns 13.3

// data source = PubChem BioAssay (NCI)
